Every entry's value here was drawn from PubChem BioAssay.

Biological target: Calmodulin-1 (Homo sapiens) (UniProt P0DP23)
Test: small molecules binding calmodulin-1 with EGTA – biochemical, small-molecule microarray, Cy5-labelled CALM1, profiling panel (AID 1111);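 note: labelled calmodulin applied in Tris saline Tween buffer holding calcium plus EGTA and DTT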
Conditions: Cy5-CALM1 binding fluorescence, higher = more signal
Overview of recorded composite z-score for various compounds
reported.metric: composite z-score

compound=CO[C@H]1O[C@H](CO)[C@@H](OC(=O)Nc2ccc(Br)cc2)[C@@H]2OC(=O)[C@H](Cc3cccc(Br)c3)C/C=C/C[C@@H](Cc3cccc(Br)c3)C(=O)O[C@@H]12 reported_metric="composite z-score" value=0.404
compound="C=CCC(OC(C)=O)[C@@H]1[C@@H](N(Cc2cc3ccccc3o2)C(=O)Cc2ccc(OC)cc2)c2cc(OCCCO)ccc2N1C(=O)c1ccc2ccccc2c1 (some centres undefined)" reported_metric="composite z-score" value=-0.428
compound=COC(=O)[C@@]1(Cc2ccccc2)[C@H]2c3cc(C(=O)N(C)C)n(Cc4ccc(OC)c(OC)c4)c3C[C@H]2CN1C(=O)c1ccccc1 reported_metric="composite z-score" value=1.71
compound=CCCC[C@H]1C[C@@H]1[C@@H]1N(P(=O)(c2ccccc2)c2ccccc2)C[C@@](O)(c2ccccc2)CC12CC2 reported_metric="composite z-score" value=1.96
